Each recorded value in this set is attributed to PubChem BioAssay AID1159580.

method_description: chemical genetic growth profiling, strain panel (AID 1159580);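 further: tested at 20 µM; growth read once vehicle control cultures reached saturation at 30 °C; 1 = growth at the plate median or of vehicle wells; lower values mean less growth of the strain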
condition_info: S. cerevisiae deletion strains, growth OD, locus YLL026W
About 2,000 (36%) of roughly 5,500 compounds were called active. Roughly 18% stayed inconclusive and do not appear here. No stated cut-off is given here; in the data, active means normalized growth mostly below about 0.91 (no sharp cut-off); inconclusive means no clear call, values can overlap the other calls; inactive means mostly above about 0.92. The list shows a part of the results.
Select the matching outcome among class 1 for active, class 0 for inactive

Identify the outcome logged in this assay for the compound shown: "COc1ccc(C(=O)/C=C/c2ccccc2)cc1"
class 0

Identify the outcome logged in this assay for the compound shown: "COc1cccc(-c2cc(=O)c3ccc(OC)cc3o2)c1"
class 0

Identify the outcome logged in this assay for the compound shown: "COc1ccc(-c2cc(=O)c3ccccc3o2)cc1"
class 1

Identify the outcome logged in this assay for the compound shown: "O=c1c2ccccc2[se]n1-c1ccccc1"
class 1

Identify the outcome logged in this assay for the compound shown: "O=C1CN2Cc3c(ccc(Cl)c3Cl)N=C2N1"
class 0

Identify the outcome logged in this assay for the compound shown: "CCN(CC)CCNc1ccc(CO)c2sc3ccccc3c(=O)c12"
class 0

Identify the outcome logged in this assay for the compound shown: "COc1ccc(-c2coc3cc(OC(C)=O)cc(OC(C)=O)c3c2=O)cc1"
class 0

Identify the outcome logged in this assay for the compound shown: "N[C@H](CO)Cc1ccccc1"
class 0

Identify the outcome logged in this assay for the compound shown: CN1CCOC(c2ccccc2)c2ccccc2C1 (configuration not stated)
class 0

Identify the outcome logged in this assay for the compound shown: "NC(=O)CC[C@@H](N)C(=O)O"
class 0

Identify the outcome logged in this assay for the compound shown: CCOC(=O)C1C(C=C(C)C)C1(C)C (configuration not stated)
class 0

Identify the outcome logged in this assay for the compound shown: "COc1cccc2c1cc([N+](=O)[O-])c1c(C(=O)O)cc3c(c12)OCO3"
class 0

Identify the outcome logged in this assay for the compound shown: CC(=O)OCC(=O)[C@@]1(O)CCC2C3CC[C@@H]4C[C@H](O)CC[C@]4(C)C3C(=O)C[C@@]21C (some centres not stated)
class 0

Identify the outcome logged in this assay for the compound shown: "NS(=O)(=O)c1cc2c(cc1C(F)(F)F)NCNS2(=O)=O"
class 0

Identify the outcome logged in this assay for the compound shown: "CC(C)(Oc1ccc(Cl)cc1)C(=O)O"
class 0

Identify the outcome logged in this assay for the compound shown: "O=c1cc(-c2cccc(O)c2)oc2ccc(O)cc12"
class 0

Identify the outcome logged in this assay for the compound shown: CC(C(=O)O)[C@H]1CCC2C3CC=C4C[C@@H](O)CC[C@]4(C)C3CC[C@@]21C (some centres not stated)
class 0

* * *

method_description: chemical genetic growth profiling, strain panel (AID 1159580);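 further: tested at 20 µM; growth read once vehicle control cultures reached saturation at 30 °C; 1 = growth at the plate median or of vehicle wells; lower values mean less growth of the strain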
condition_info: S. cerevisiae deletion strains, growth OD, locus YDR502C, strain sam2
Out of some 5,500 compounds screened, about 2,000 (36%) were called active. Not shown: some 18% with an inconclusive outcome. Cut-off read from the data, not from the text of the source: active = normalized growth mostly below about 0.91 (no sharp cut-off); inconclusive = no clear call, values can overlap the other calls; inactive = mostly above about 0.92. Some of the results follow.
Select the matching outcome among true (1) (active), false (0) (inactive)

Identify the outcome logged in this assay for the compound shown: "O=C(O)c1nc2cc(Cl)c(Cl)cc2[nH]c1=O"
false (0)

Identify the outcome logged in this assay for the compound shown: "CCCCCCCCCc1ccc(O)cc1"
true (1)

Identify the outcome logged in this assay for the compound shown: "NCC(=O)CCC(=O)O"
false (0)

Identify the outcome logged in this assay for the compound shown: "Nc1ccc(C(=O)Oc2ccccc2)c(O)c1"
true (1)

Identify the outcome logged in this assay for the compound shown: "CC(C)(Oc1ccc(Cl)cc1)C(=O)O"
false (0)

Identify the outcome logged in this assay for the compound shown: "O=c1[nH]c2cc(Cl)c(Cl)cc2[nH]c1=O"
false (0)

Identify the outcome logged in this assay for the compound shown: "COc1cccc(-c2cc(=O)c3ccc(OC)cc3o2)c1"
false (0)

Identify the outcome logged in this assay for the compound shown: CC(=O)O[C@@H]1CC2C(C)(C)CCC(=O)[C@]2(C)C2CC[C@@]3(C)[C@H](c4ccoc4)OC(=O)C4OC43[C@@]21C (stereo not given in full)
false (0)

Identify the outcome logged in this assay for the compound shown: "Cc1cc(=O)c2c(o1)-c1c(cc(O)c(O)c1C(=O)O)OC2"
false (0)

Identify the outcome logged in this assay for the compound shown: CSc1ccc2c(c1)C(N1CCN(C)CC1)Cc1ccccc1S2 (stereo not given)
true (1)

Identify the outcome logged in this assay for the compound shown: CN1CCN2c3ccccc3Cc3ccccc3C2C1 (stereo not given)
false (0)

Identify the outcome logged in this assay for the compound shown: "COc1ccc(C(=O)/C=C/c2ccccc2)cc1"
true (1)

Identify the outcome logged in this assay for the compound shown: C=C1C2CC[C@@]3(C)[C@H](c4ccoc4)OC(=O)C[C@]13O[C@H]1CC(=O)C(C)(C)[C@H](C(O)C(=O)OC)[C@@]21C (stereo not given in full)
false (0)

Identify the outcome logged in this assay for the compound shown: "COc1cc([C@@H]2c3cc4c(cc3[C@H](OC(C)=O)[C@H]3COC(=O)[C@H]23)OCO4)cc(OC)c1OC"
false (0)

Identify the outcome logged in this assay for the compound shown: "CCn1cc(C(=O)O)c(=O)c2cc(F)c(N3CCNCC3)cc21"
false (0)

Identify the outcome logged in this assay for the compound shown: "ClC(Cl)=C(c1ccc(Cl)cc1)c1ccc(Cl)cc1"
false (0)

Identify the outcome logged in this assay for the compound shown: OC1C(O)C(O)C(O)C(O)C1O (stereo not given)
false (0)

Identify the outcome logged in this assay for the compound shown: "Clc1ccc(Cl)cc1"
false (0)

Identify the outcome logged in this assay for the compound shown: C#CCOS(=O)OC1CCCCC1Oc1ccc(C(C)(C)C)cc1 (stereo not given)
false (0)

Identify the outcome logged in this assay for the compound shown: COCCOC(=O)C1=C(C)NC(C)=C(C(=O)OC(C)C)C1c1cccc([N+](=O)[O-])c1 (stereo not given)
false (0)

Identify the outcome logged in this assay for the compound shown: "O=C(/C=C/c1ccccc1)c1ccc(O)cc1"
true (1)

Identify the outcome logged in this assay for the compound shown: "COc1cc(O)c2c(=O)c(-c3ccc(O)cc3)coc2c1"
true (1)

Identify the outcome logged in this assay for the compound shown: CCC(CCC(C)[C@H]1CCC2C3CC=C4C[C@@H](O)CC[C@]4(C)C3CC[C@@]21C)C(C)C (stereo not given in full)
false (0)

Identify the outcome logged in this assay for the compound shown: "CN1CCc2c(c3ccccc3n2Cc2ccccc2)C1"
false (0)

Identify the outcome logged in this assay for the compound shown: "Cc1cc(=O)c2c(O)c3c(cc2o1)OC(C)(C)CC3"
false (0)

Identify the outcome logged in this assay for the compound shown: CC(=O)O[C@@H]1CC2C(C)(C)[C@H](O)C[C@H](O)[C@]2(C)C2CC[C@@]3(C)[C@H](c4ccoc4)OC(=O)[C@H]4O[C@]43[C@@]21C (stereo not given in full)
false (0)

Identify the outcome logged in this assay for the compound shown: "NCCc1cccc(O)c1"
false (0)

Identify the outcome logged in this assay for the compound shown: C[C@@H]1CC[C@@]2(OC1)OC1C(O)C3C4CC[C@H]5C[C@H](O[C@@H]6O[C@H](CO)[C@H](O[C@@H]7O[C@H](CO)[C@@H](O)[C@H](O[C@@H]8OC[C@@H](O)[C@H](O)[C@H]8O)[C@H]7O[C@@H]7O[C@H](CO)[C@H](O)[C@H](O[C@@H]8O[C@H](CO)[C@@H](O)[C@H](O)[C@H]8O)[C@H]7O)[C@H](O)[C@H]6O)[C@H](O)C[C@]5(C)C4CC[C@]3(C)C1[C@@H]2C (stereo not given in full)
true (1)

Identify the outcome logged in this assay for the compound shown: "COc1cccc2c1cc([N+](=O)[O-])c1c(C(=O)O)cc3c(c12)OCO3"
false (0)

Identify the outcome logged in this assay for the compound shown: "O=c1c(-c2ccccc2)coc2cc(O)cc(O)c12"
true (1)

Identify the outcome logged in this assay for the compound shown: CC1NC(=O)NC1=O (stereo not given)
false (0)

Identify the outcome logged in this assay for the compound shown: "COc1cccc(-c2cc(=O)c3cc(OC)ccc3o2)c1"
true (1)

Identify the outcome logged in this assay for the compound shown: Cn1nnnc1SCC1=C(C(=O)O)N2C(=O)C(NC(=O)C(O)c3ccccc3)C2SC1 (stereo not given)
false (0)

Identify the outcome logged in this assay for the compound shown: "COc1c(O)cccc1O"
false (0)

Identify the outcome logged in this assay for the compound shown: "N[C@@H]1CONC1=O"
false (0)
